In this section we review reported growth values for a set of molecules.
Tested on: PC-3 prostate
Experiment: NCI-60 one-dose screen, 48 h (100 = growth as untreated, 0 = no growth, -100 = all killed)
Settings: 10 µM unless noted
Compounds without any hit were thinned out: in the full panel of roughly 83,000, 20% have a hit. The source made the active and inactive calls. How the source made its calls: active means growth percent below 10; inactive means the rest.
measured.quantity: growth

- molecule: "CCCCCCCCCCCCNC(=O)N[C@H](C(=O)N[C@H]1/C=C/CCNC(=O)/C=C/[C@H](C)NC1=O)C(C)C"
  data.value: "-24% (active)"
- molecule: "C=C(COC(C)=O)[C@H]1CC/C(C)=C/CC/C(C)=C/CC[C@@]2(C)O[C@H]2C1"
  data.value: "129% (inactive)"
- molecule: "CCOC(=O)N1C2CCC(C2)N1C(=O)OCC"
  data.value: "105% (inactive)"
- molecule: "ClC1=NC(Cl)C(Cl)=N/C1=N\\c1ncn[nH]1 (configuration not stated)"
  data.value: "20.3% (inactive)"
- molecule: "COc1ccccc1-[n+]1cc(-c2ccc(-c3ccccc3)cc2)n2c1CCCCC2"
  data.value: "1.3% (active)"
- molecule: "C[N+](C)(C)CCCCCCCCCC[N+](C)(C)C"
  data.value: "89.3% (inactive)"
- molecule: "Cc1cccc(N=NC(=S)NNc2cccc(C)c2)c1"
  data.value: "102% (inactive)"

---

Tested on: MALME-3M melanoma
Assay: NCI-60 one-dose screen, 48 h
Conditions: 10 µM unless noted
About 83,000 compounds went through this panel and 20% of them were active in at least one assay; those are over-represented in the sample as a whole. Active and inactive are the calls of the source. The calls were made as follows: active = growth percent below 10; inactive = the rest.
Outcome codes: active, inactive

- molecule: "COc1cnc2c(c1)C(=O)c1c-2n(CCCN2CCCC2)c(=O)c2cc(Cl)ccc12"
  assigned.label: "inactive"
- molecule: "COc1cc(C2CC(c3ccc(C)cc3)=NN2C=O)ccc1Oc1ccnc2cc(Cl)ccc12 (stereo unspecified)"
  assigned.label: "inactive"
- molecule: "COc1cc(NCCC2CCCCN2)c2ncccc2c1OC (stereo unspecified)"
  assigned.label: "inactive"
- molecule: "CCCCCc1c(C)[nH]c(/C=C2\\N=C(c3ccc[nH]3)C=C2Oc2ccc(OC)cc2)c1C"
  assigned.label: "active"
- molecule: "Clc1ccccc1CNc1c2ccccc2nc2ccccc12"
  assigned.label: "inactive"
- molecule: "CN(C)N1C(=O)c2c(Cl)c(Cl)c(Cl)c(Cl)c2C1=O"
  assigned.label: "inactive"
- molecule: "c1cn2cc(-c3ccc4ncn(C5CCCCC5)c4c3)nc(-c3ccc4c(c3)ncn4C3CCCCC3)c2n1"
  assigned.label: "active"
- molecule: "COC(=O)[C@@H](Cc1c[nH]c2ccccc12)NC(=O)/C=C/c1ccccc1"
  assigned.label: "inactive"
- molecule: "Cc1ccccc1Nc1n[nH]c(Cc2ccccc2)n1"
  assigned.label: "inactive"
- molecule: "CCN1C(=O)N(CC)C2C1NN=c1s/c(=C\\c3ccc(Br)cc3)c(=O)n12 (stereo unspecified)"
  assigned.label: "inactive"
- molecule: "CC(=O)O[C@@H]1CC2C(C)(C)CCCC2(C)C2=C1C(=O)C(C(C)C)=CC2=O (stereo partly specified)"
  assigned.label: "active"

---

System: KM12 colon
Experiment: NCI-60 one-dose screen, 48 h (100 = growth as untreated, 0 = no growth, -100 = all killed)
Conditions: 10 µM unless noted
Experimental: Growth inhibition of the KM12 human tumor cell line is measured as a screen for anti-cancer activity. Cells are grown in 96 well plates and exposed to the test compound for 48 hours. Compounds are tested at a single concentration, which is 10^-5 M for most compounds. The reported endpoint is percent growth (GI% or GIPRCNT), where numbers from 0 - 100% represent growth inhibition, and numbers from -100% - 0 represent cell death. For example, a value of 40 represents 60% growth inhibition. […]
This is part of a sample that, as a whole, favours compounds with a hit. Of some 83,000 tested, about 20% had one in any assay.

- record.smiles: "COc1ccc(-c2cc(C(=O)Nc3ccc(Br)cc3)nc3[nH]c(=O)sc23)cc1"
  assay.system: "KM12 colon"
  units.of.measure: "%"
  growth: 34.7
- record.smiles: "COc1ccc(CNc2c3ccccc3nc3ccccc23)cc1F"
  assay.system: "KM12 colon"
  units.of.measure: "%"
  growth: 32.8
- record.smiles: "Nc1nc(NC2CC2)cc(-c2cccc(Cl)c2Cl)n1"
  assay.system: "KM12 colon"
  units.of.measure: "%"
  growth: 47.8
- record.smiles: "COc1cc(Nc2ncccc2/C=C/C(=O)c2cc(OC)c(OC)c(OC)c2)cc(OC)c1OC"
  assay.system: "KM12 colon"
  units.of.measure: "%"
  growth: 71.1

---

Test system: U251 CNS
Test: NCI-60 one-dose screen, 48 h
Details: 10 µM unless noted
The panel holds about 83,000 compounds, 20% with a hit somewhere; the sample as a whole holds those more often. Active and inactive are the calls of the source. The calls were made as follows: active = growth percent below 10; inactive = the rest.
Outcome codes: active, inactive

- compound: "CCN(CC)C(=O)O/N=C(/C)c1ccccc1"
  assigned.label: "inactive"
- compound: "CCCCOc1nc2ccc(C)cc2cc1/C=C/C(=O)/C=C(O)/C=C/c1cc2cc(C)ccc2nc1OCCCC"
  assigned.label: "inactive"
- compound: "NC(N)=NC1CCCCC1"
  assigned.label: "inactive"
- compound: "COc1ccc2nc(-c3ccc(-c4noc(-c5ccc(Cl)cc5)n4)cc3)[nH]c2c1"
  assigned.label: "inactive"
- compound: "CC(C)(C)c1nn(-c2ccccc2)c2c1C(=O)CSC(c1ccc3c(c1)OCO3)N2 (stereo not drawn)"
  assigned.label: "inactive"
- compound: "O=[N+]([O-])c1ccc(N/N=C\\c2ccc(O)cc2O)nc1"
  assigned.label: "inactive"
- compound: "Cc1csc(N/N=C/c2ccncc2)n1"
  assigned.label: "inactive"
- compound: "C[Si](C)(C)C(c1ccccc1)c1ccccc1"
  assigned.label: "inactive"
- compound: "COc1ccc2nc3ccccc3c(NCc3ccc(C)cc3)c2c1"
  assigned.label: "inactive"
- compound: "CCCCCCCC/C=C/CCCCCCCC1=NC(C)(C)CN1C(C)C"
  assigned.label: "active"
- compound: "CC(C)CCC(=O)[C@@H](C)[C@H]1[C@@H](OC2OCC(O)C(O)C2NS(C)(=O)=O)C[C@H]2[C@@H]3CC=C4C[C@@H](O)CC[C@]4(C)[C@H]3CC[C@]12C (stereo partly drawn)"
  assigned.label: "active"
- compound: "O=S1(=O)NCCCN1CCNc1nccc(-c2c(-c3cccc(O)c3)nc3sccn23)n1"
  assigned.label: "inactive"
- compound: "COc1ccc(C(=O)OC2C(OC3C(O)COC(O[C@H]4C[C@H]5[C@@H]6CC=C7C[C@@H](O)CC[C@]7(C)[C@H]6CC[C@]5(C)[C@H]4[C@H](C)C(=O)CCC(C)C)C3OC(C)=O)OCC(O)C2O)cc1 (stereo partly drawn)"
  assigned.label: "active"

---

Test system: M14 melanoma
Experiment: NCI-60 one-dose screen, 48 h
Conditions: 10 µM unless noted
Compounds without any hit were thinned out: in the full panel of roughly 83,000, 20% have a hit. Active and inactive are the calls of the source. Rule for the calls: active = growth percent below 10; inactive = the rest.
Outcome codes: y = active, n = inactive

- compound: "O=C(/C=C/c1cn(-c2ccccc2)nc1-c1ccccc1)OCc1cn(-c2cccc([N+](=O)[O-])c2)nn1"
  assigned.label: "n"
- compound: "CNC1=C([N+](=O)[O-])C(c2ccccc2O)C(C#N)=C(c2cccs2)O1 (configuration not stated)"
  assigned.label: "n"
- compound: "CC[C@H](C)[C@H](N)C(=O)O"
  assigned.label: "n"
- compound: "Fc1ccc(-c2nc(-c3ccc(-c4nc5ccc(F)cc5[nH]4)cc3)no2)cc1"
  assigned.label: "n"
- compound: "O=C(CC(=O)C(F)(F)C(F)(F)C(F)(F)F)c1cc2ccccc2o1"
  assigned.label: "n"
- compound: "CC(C)(C)c1nn(-c2ccccc2)c2c1C(=O)CSC(c1ccc3c(c1)OCO3)N2 (configuration not stated)"
  assigned.label: "n"
- compound: "Nc1c(C(=O)Nc2cccc(Cl)c2)sc2nc3c(cc12)C(=O)CCC3"
  assigned.label: "n"
- compound: "COc1ccc(CC2c3cc(OC)c(OC)cc3CC[N+]2(C)CCC(=O)OCCCCCOC(=O)CC[N+]2(C)CCc3cc(OC)c(OC)cc3C2Cc2ccc(OC)c(OC)c2)cc1OC (configuration not stated)"
  assigned.label: "n"
- compound: "COc1cc(CN(CCC(O)N2CCCC2=O)Cc2ccc3c(c2)OCO3)cc(OC)c1OC (configuration not stated)"
  assigned.label: "n"
- compound: "ClC1=NC(Cl)C(Cl)=N/C1=N\\c1ncn[nH]1 (configuration not stated)"
  assigned.label: "n"
- compound: "COc1ccc2c(c1)sc1nc(-c3ccccc3)c(-c3cccc4ccccc34)n12"
  assigned.label: "n"
- compound: "CCN1CCN(Cc2ccc(NC(=O)Nc3ccc(-n4ccc5c(NC(=O)c6ccccc6)nccc54)cc3)cc2C(F)(F)F)CC1"
  assigned.label: "y"
- compound: "COc1ccc(-c2cnc(-c3ccncc3-c3cccc(OC)c3)o2)cc1"
  assigned.label: "n"
- compound: "N=C(N)c1ccc(NCCNc2ccc(C(=N)N)cc2)cc1"
  assigned.label: "n"
- compound: "Nc1c(Br)cc2c(c1Br)Cc1cc(Cl)ccc1-2"
  assigned.label: "n"
- compound: "COc1ccccc1CNCCCN1C(=O)c2ccc3c4c(ccc(c24)C1=O)C(=O)N(CCCOCCCCOCCCN)C3=O"
  assigned.label: "y"
- compound: "Cc1ccc(C)c2c1SC1=NNC(Oc3ccc(Cl)cc3)=C(C#N)C(=N)N12"
  assigned.label: "n"
- compound: "C=CCN1C(=O)/C(=c2\\sc3n(c2=O)C2C(NN=3)N(CC)C(=O)N2CC)c2ccccc21 (configuration not stated)"
  assigned.label: "n"
- compound: "CC(CN1CCN(CC(C)Nc2ccnc3cc(Cl)ccc23)CC1)Nc1ccnc2cc(Cl)ccc12 (configuration not stated)"
  assigned.label: "y"
- compound: "C=CCCCCOc1cccc(/C=C2\\N=C3SCCCN3C2=O)c1"
  assigned.label: "n"
- compound: "OC(COCc1ccccc1)COCc1ccccc1"
  assigned.label: "n"
- compound: "COc1ccc(-c2conc2-n2nc(-c3ccccc3)nc2-c2ccccc2)cc1"
  assigned.label: "n"
- compound: "O=c1c2cc(Br)cc(Br)c2nc(-c2ccc(Cl)cc2)n1/N=C\\c1ccccc1F"
  assigned.label: "n"
- compound: "CCCCCCCCCCCCCCCCCC1=NCCN1CCO"
  assigned.label: "n"
- compound: "c1ccc(-c2ccc(-c3ccccc3)[nH]2)cc1"
  assigned.label: "n"
- compound: "O=C(Nc1ccc(Br)cc1)Nc1cccc(Br)c1"
  assigned.label: "n"
- compound: "COc1cc(Cl)cc(-c2nn(C(=O)NCCN3CCOCC3)cc2-c2ccncc2)c1"
  assigned.label: "n"
- compound: "Clc1ccccc1CNc1c2ccccc2nc2ccccc12"
  assigned.label: "n"
- compound: "CC(C)(C)c1nn(-c2ccccc2)c2c1C(=O)CSC(c1ccccc1Cl)N2 (configuration not stated)"
  assigned.label: "n"
- compound: "OC(CCCCCCCCC(O)CN1CCc2ccccc2C1)CN1CCc2ccccc2C1 (configuration not stated)"
  assigned.label: "n"
- compound: "Nc1ccc(C2=NNC(=O)Cc3cc4c(cc32)OCCO4)cc1Cl"
  assigned.label: "n"
- compound: "COc1ccc2nc(-c3ccc(-c4noc(-c5ccc(Cl)cc5)n4)cc3)[nH]c2c1"
  assigned.label: "n"
